B1: NEK8 (parent)
chain: YTFGSNQHGQLGTNTRRGSRAPCK

# Variants of: B1
# test: protein stability index of a GFP-peptide fusion (GPS, HEK-293T) (PSI 1-6); higher = more stable;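 also: lentivirally expressed fusions sorted by FACS into six bins by GFP to DsRed ratio, PSI derived from sequencing read proportions per bin multiplied by bin number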
# details: c terminus: a fixed tail appended
Use satisfied when the recorded protein stability index is no lower than 4; use not satisfied when it is lower.

Use the examples below as a reference point.
biosequence	label
YTFGSVQHGQLGTNTRRGSRAPCK [N6V]	not satisfied
YTFGSNQHGQLGTNTRRGSRALCK [P22L]	not satisfied
YTFGSNQHGQLGTNTRYGSRAPCK [R17Y]	not satisfied

Prompt line: Please indicate if the recorded protein stability index for YNFGSNQHGQLGTNTRRGSRAPCK [T2N] meets or exceeds 4.
Response line: satisfied

Prompt line: Textbook exercise: given the entry YTFGSNQHGYLGTNTRRGSRAPCK [Q10Y] , state whether its protein stability index is greater than or equal to 4.
Response line: not satisfied

Prompt line: Quick check: does YTFGSNQHGQLGTNTRRGSCAPCK [R20C] have protein stability index greater than or equal to 4?
Response line: not satisfied

Prompt line: Form field: protein stability index at least 4? Entry: YTFGSNQHGQLGTNTRRGSRTPCK [A21T]
Response line: satisfied

Prompt line: Could you please find out whether YTFGSNQHGQLGTNTRFGSRAPCK [R17F] has protein stability index that meets 4 or exceeds it?
Response line: not satisfied

Prompt line: // inclusive: protein stability index at least 4? input: YTFGSNQHGKLGTNTRRGSRAPCK [Q10K]
Response line: not satisfied

Prompt line: protein stability index >= 4 for YTFGSNQHGQLGTNTRRGKRAPCK [S19K] ?
Response line: not satisfied

Prompt line: Item YTFGSNQHGQLGWNTRRGSRAPCK [T13W] with protein stability index of 4 or above?
Response line: not satisfied
